Target: P70S6K (T412E mutant) (Homo sapiens (Human), UniProt P23443, T412E)
Sequence (P23443 whole entry T412E): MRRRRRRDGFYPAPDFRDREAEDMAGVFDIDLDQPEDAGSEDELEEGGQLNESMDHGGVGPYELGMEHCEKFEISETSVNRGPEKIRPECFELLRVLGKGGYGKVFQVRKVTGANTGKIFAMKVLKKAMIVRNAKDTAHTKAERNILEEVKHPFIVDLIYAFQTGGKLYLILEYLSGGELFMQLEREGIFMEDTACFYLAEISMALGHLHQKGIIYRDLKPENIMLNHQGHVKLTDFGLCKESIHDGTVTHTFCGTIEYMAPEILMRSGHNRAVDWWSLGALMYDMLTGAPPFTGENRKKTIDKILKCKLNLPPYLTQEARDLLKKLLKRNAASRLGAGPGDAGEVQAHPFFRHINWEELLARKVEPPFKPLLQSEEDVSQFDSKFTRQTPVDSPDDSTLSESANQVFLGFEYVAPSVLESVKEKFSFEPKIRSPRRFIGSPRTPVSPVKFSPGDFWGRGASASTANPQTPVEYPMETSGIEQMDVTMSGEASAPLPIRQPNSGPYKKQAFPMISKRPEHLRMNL
Experimental protocol: P70S6K enzyme assay
Assay setup: 3 nM P70S6K T412E mutant, 24 μM ATP, 1 μM FITC-AHA-AKRRRLSSLRA-OH substrate peptide, 90 min at 25° C.
pIC50: −log10 of the molar value.
Entry class follows pIC50: bottom range: < 6; center range: ≥ 6 and < 7; top range: ≥ 7

Field: example entries. Status: answers known.
• N#Cc1cccc([C@@H](CN2CCC2)N2CCN(c3ncnc(N)c3-c3cn[nH]c3)CC2)c1 = bottom range
• Nc1ncnc(N2CC[C@@](N)(CNC(=O)c3ccc(F)cc3F)C2)c1-c1ccc(F)cc1 = center range
• CN(C)CC(c1ccc(C(F)(F)F)cc1)N1CCN(c2ncnc(N)c2C2CC2)CC1 (stereo not drawn) = center range
• COc1ccc(-c2c(N)ncnc2N2CCC(N)(CNC(=O)c3ccc(F)cc3F)C2)cn1 (stereo not drawn) = top range
• Nc1ncnc(N2CCC(N)(CNC(=O)c3ccc(F)cc3F)C2)c1-c1cccc(F)c1 (stereo not drawn) = top range
• NCC(c1ccc(F)c(C(F)(F)F)c1)N1CCN(c2ncnc(N)c2-c2ccc(F)cc2)CC1 (stereo not drawn) = top range
• COc1ccc([C@H](CCO)NC(=O)C2(N)CCN(c3ncnc(N)c3C#N)CC2)cc1 = center range
• Cc1ccc([C@H](CCO)NC(=O)C2(N)CCN(c3ncnc(N)c3C#N)CC2)cc1 = center range
• N#Cc1cccc([C@H](CN2CCC2)N2CCN(c3ncnc(N)c3-c3cn[nH]c3)CC2)c1 = bottom range
• CN(C)C[C@@H](c1ccc(C(F)(F)F)cc1)N1CCN(c2ncnc(N)c2-c2ccc(F)cc2)CC1 = top range

Input line: GET /class?item= C=Cc1c(N)ncnc1N1CCN(C(CN(C)C)c2ccc(C(F)(F)F)cc2)CC1 (stereo not drawn)
Output line: top range

Input line: GET /class?item= Nc1ncnc(N2CCN(C(CN3CCC3)c3ccc(F)c(OC(F)(F)F)c3)CC2)c1-c1cn[nH]c1 (stereo not drawn)
Output line: bottom range

Input line: GET /class?item= Nc1ncnc(N2CCN(C(CN3CCC3)c3cccc(F)c3)CC2)c1-c1ccc(F)cc1 (stereo not drawn)
Output line: center range

Input line: GET /class?item= Nc1cc(N2CCN(C(CN3CCCCC3)c3cccc(C(F)(F)F)c3)CC2)ncn1 (stereo not drawn)
Output line: bottom range

Input line: GET /class?item= NC[C@@H](c1ccc(C(F)(F)F)cc1)C1CCN(c2ncnc(N)c2-c2cn[nH]c2)CC1 (single isomer, unassigned)
Output line: top range

Input line: GET /class?item= N#Cc1ccc(C(CN2CCC2)N2CCN(c3ncnc(N)c3-c3cn[nH]c3)CC2)cc1 (single isomer, unassigned)
Output line: bottom range

Input line: GET /class?item= N#CC(c1ccc(C(F)(F)F)cc1)N1CCN(c2ncnc(N)c2-c2ccc(F)cc2)CC1 (stereo not drawn)
Output line: center range

Input line: GET /class?item= Nc1ncnc(N2CCN(C(CCN3CCC3)c3ccc(Cl)cc3)CC2)c1-c1ccc(F)cc1 (stereo not drawn)
Output line: center range

Input line: GET /class?item= Nc1ncnc(N2CCN(C(CN3CCCCC3)c3ccc(C(F)(F)F)cc3)CC2)c1-c1ccc(F)cc1 (stereo not drawn)
Output line: top range

====

Target: P70S6K (T412E mutant) (Homo sapiens (Human), UniProt P23443, T412E)
Experimental protocol: P70S6K enzyme assay
Assay setup: 3 nM P70S6K T412E mutant, 24 μM ATP, 1 μM FITC-AHA-AKRRRLSSLRA-OH substrate peptide, 90 min at 25° C.
Experimental: The IC50 values reported for the compounds in the Experimental section were derived from the following protocol for the p70S6K enzyme assay. P70S6K inhibitor compounds were diluted and plated in 96 well plates. […] The proportion of substrate and product (phosphorylated) peptide was analysed on a Caliper Life Sciences Lab Chip 3000, using a pressure of −1.4 psi, and upstream and downstream voltages of −3000 and −700 respectively. […]
Measure: IC50 (µM)
Give just the numeric value; µM need not be written.

Worked set:
* COC(=O)c1ccc(C(CN2CCC2)N2CCN(c3ncnc(N)c3-c3cn[nH]c3)CC2)cc1 (single isomer, unassigned) [Example 86] | 6.4
* CCc1c(N)ncnc1N1CCN(C(CN)c2ccc3c(c2)OCCO3)CC1 (stereo not shown) [Example 181] | 0.18
* N#Cc1ccc(-c2c(N)ncnc2N2CCC(N)(CNC(=O)c3ccc(F)cc3F)C2)cc1 (stereo not shown) [Example 199] | 0.011

Input line: // IC50 lookup, key: Nc1ncnc(N2CCN(C(CN3CCC3)c3ccc4c(c3)CCCC4)CC2)c1-c1cn[nH]c1 (stereo not shown) [Example 122]
Output line: 0.95

====

Target: P70S6K (T412E mutant) (Homo sapiens (Human), UniProt P23443, T412E)
Experimental protocol: P70S6K enzyme assay
Assay setup: 3 nM P70S6K T412E mutant, 24 μM ATP, 1 μM FITC-AHA-AKRRRLSSLRA-OH substrate peptide, 90 min at 25° C.
Measure: IC50 (µM)
Give just the numeric value; µM need not be written.

Worked set:
- Nc1ncnc(N2CCN([C@H](CN3CCC3)c3cccc(F)c3)CC2)c1-c1cn[nH]c1 [Example 87]: 8.7
- C[C@H](NC(=O)C1(N)CCN(c2ncnc(N)c2-c2cn[nH]c2)CC1)c1ccc(Cl)cc1 [Example 224]: 0.087

Input line: // IC50 lookup, key: Nc1ncnc(N2CCN(C(CN3CCCC3)c3ccc(C(F)(F)F)cc3)CC2)c1-c1ccc(F)cc1 (stereo not shown) [Example 10]
Output line: 0.031

====

Target: P70S6K (T412E mutant) (Homo sapiens (Human), UniProt P23443, T412E)
Experimental protocol: P70S6K enzyme assay
Format: biochemical
Assay setup: 3 nM P70S6K T412E mutant, 24 μM ATP, 1 μM FITC-AHA-AKRRRLSSLRA-OH substrate peptide, 90 min at 25° C.
Protocol: The IC50 values reported for the compounds in the Experimental section were derived from the following protocol for the p70S6K enzyme assay. P70S6K inhibitor compounds were diluted and plated in 96 well plates. […] The proportion of substrate and product (phosphorylated) peptide was analysed on a Caliper Life Sciences Lab Chip 3000, using a pressure of −1.4 psi, and upstream and downstream voltages of −3000 and −700 respectively. […]
Reported pIC50 values for the following molecules.
Please treat pIC50 as minus the base-10 logarithm of the molar concentration.

Worked set:
• NCC(c1ccc(C(F)(F)F)cc1)N1CCN(c2ncnc(N)c2-c2ccc(F)cc2)CC1 (stereo not shown) = 8.66
• NCC(c1ccc(OC(F)(F)F)cc1)N1CCN(c2ncnc(N)c2-c2cn[nH]c2)CC1 (stereo not shown) = 8.85
• Nc1ncnc(N2CCC(Cc3ccc(C(F)(F)F)cc3)CC2)c1Br = 6.02

Alright, here's another molecule for you.
Input line: // pIC50 lookup, key: NCC(c1cccnc1)N1CCN(c2ncnc(N)c2-c2ccc(F)cc2)CC1 (stereo not shown)
Output line: 7.51

====

Target: P70S6K (T412E mutant) (Homo sapiens (Human), UniProt P23443, T412E)
Experimental protocol: P70S6K enzyme assay
Assay setup: 3 nM P70S6K T412E mutant, 24 μM ATP, 1 μM FITC-AHA-AKRRRLSSLRA-OH substrate peptide, 90 min at 25° C.
Reported pIC50 values for the following compounds.
Please treat pIC50 as minus the base-10 logarithm of the molar concentration.

Worked set:
* NC[C@H](c1ccc(C(F)(F)F)cc1)N1CCN(c2ncnc(N)c2-c2ccc(F)cc2)CC1 [Example 3] | 8.59
* Nc1ncnc(N2CCC(C(O)c3ccc(Cl)cc3)CC2)c1-c1ccc(F)cc1 (stereo not drawn) [Example 138] | 8.60
* NCC(c1ccc(C(F)(F)F)cc1)N1CCN(c2ncnc(N)c2-c2cn[nH]c2)CC1 (stereo not drawn) [Example 7] | 8.55

Input line: // pIC50 lookup, key: NC(=O)c1c(N)ncnc1N1CCC(N)(CNC(=O)c2ccc(F)cc2F)C1 (stereo not drawn) [Example 197]
Output line: 6.28

Input line: // pIC50 lookup, key: NCC(c1ccc(C(F)(F)F)cc1)N1CCN(c2ncnc(N)c2C2=CCCC2)CC1 (stereo not drawn) [Example 25]
Output line: 8.47

====

Target: P70S6K (T412E mutant) (Homo sapiens (Human), UniProt P23443, T412E)
Experimental protocol: P70S6K enzyme assay
Assay setup: 3 nM P70S6K T412E mutant, 24 μM ATP, 1 μM FITC-AHA-AKRRRLSSLRA-OH substrate peptide, 90 min at 25° C.
Method: The IC50 values reported for the compounds in the Experimental section were derived from the following protocol for the p70S6K enzyme assay. P70S6K inhibitor compounds were diluted and plated in 96 well plates. […] The proportion of substrate and product (phosphorylated) peptide was analysed on a Caliper Life Sciences Lab Chip 3000, using a pressure of −1.4 psi, and upstream and downstream voltages of −3000 and −700 respectively. […]
pIC50: −log10 of the molar value.
Reported pIC50 values for the following compounds.

Worked set:
- NCC(c1ccc(C(F)(F)F)cc1)N1CCN(c2ncnc(N)c2O)CC1 (stereo not drawn) [Example 35]: < 6.00
- N#CC(c1cccc(C(F)(F)F)c1)N1CCN(c2ncnc(N)c2-c2ccc(F)cc2)CC1 (stereo not drawn) [Example 152]: < 6.00

Input line: // pIC50 lookup, key: Nc1cc(N2CCN(C(CN3CCCC3)c3ccc(F)cc3)CC2)ncn1 (stereo not drawn) [Example 78]
Output line: < 6.00

// data source = patent US9321760B2
